The values you see were collected from the supplement of paper PMC13380429.

Test system: HepG2
testSummary: cell viability relative to DMSO; higher = less toxic
experimentalSetup: 72 h; 1 nM
// cell viability lookup, one value per entry
Numbers only here, please. The scale is %.

Output measured cell viability for this item: CCn1c2ccccc2c2cc(Nc3ccnc(NCCCN4CCOCC4)n3)ccc21 [EHop-016]
103

Provide cell viability value for the following molecule: CC1=C(CC(=O)O)c2cc(F)ccc2/C1=C\c1ccc(S(C)(=O)=O)cc1 [exisulind]
106

# return recorded cell viability for entry CC(=O)OCC(=O)[C@@]12N=C(C)O[C@@H]1C[C@H]1[C@@H]3CCC4=CC(=O)C=C[C@]4(C)[C@H]3[C@@H](O)C[C@@]12C [Deflazacort (Calcort)]
109

Entry CC(C)c1ccccc1S(=O)(=O)c1cc(N)c2ncccc2c1[N+](=O)[O-] needs its cell viability filled in; supply it.
100

Hello, please tell me recorded cell viability for this one: O=C(c1ccc(-c2ccc(Cl)cc2)o1)N(Cc1ccccn1)c1ccc(N2CCNCC2)cc1 [MK2-IN-1]
102

Query cell viability for CSc1ccc([C@H]2CN3CCC[C@H]3c3ccccc32)cc1 (racemic) [McN-5652-(+/-)]
102

Dear colleague, please send me the reported cell viability for c1ccc(C[C@H](c2ccccc2)N2CCCCC2)cc1 (racemic) [1-(1,2-diphenylethyl)piperidine-(+/-)] when you can.
92.9

Give recorded cell viability. CC(C)C[C@@H](NC(=O)[C@H](Cc1ccccc1)NC(=O)CNC(=O)[C@@H](C)NC(=O)[C@@H](N)Cc1ccc(O)cc1)C(=O)O [BW-180C]
105

---

System: Calu-3
testSummary: cell viability relative to DMSO; higher = less toxic
experimentalSetup: 72 h; 100 nM
Below, each of the compounds is paired with its reported cell viability value.
Write down the numeric answer in % and omit the unit.

Previously resolved entries follow.
- compound: "COc1cc(C(=O)N2CCC(N3CCN(C)CC3)CC2)ccc1Nc1ncc2c(n1)N(C)c1ccccc1C(=O)N2C [LRRK2-IN-1]"
  resultUnits: "%"
  cell viability: 102
- compound: "CC(C)N(CCNC(=O)CN1CCCC1=O)C(C)C [pramiracetam]"
  resultUnits: "%"
  cell viability: 109
- compound: "CCCOc1ccc(Br)cc1-c1cc(-c2ccc(Cl)cc2)[nH]c1-c1ccncc1"
  resultUnits: "%"
  cell viability: 103
- compound: "CC(=O)NC1N=C(c2ccccc2)c2ccccc2NC1=O (configuration not stated)"
  resultUnits: "%"
  cell viability: 101
- compound: "O=C(O)/C=C1\\CCCc2ccccc2[C@H]1O (racemic) [NCS-382]"
  resultUnits: "%"
  cell viability: 99.3

Quick one: give measured cell viability for C=CCN1CC[C@]23CCCC[C@H]2[C@H]1Cc1ccc(O)cc13 [levallorphan]
99.8

Please give the documented cell viability of C=CCN1C[C@H](C(=O)N(CCCN(C)C)C(=O)NCC)C[C@@H]2c3cccc4[nH]cc(c34)C[C@H]21 [cabergoline]
97.1

In one line, give reported cell viability of the entry N=C(N)Nc1ccc2[nH]c3c(c2c1)C[C@@]1(O)[C@H]2Cc4ccc(O)c5c4[C@@]1(CCN2CC1CC1)[C@H]3O5 [GNTI] .
98.3

Please give the documented cell viability of O=C(O)CCC(=O)Nc1ccc(S(=O)(=O)Nc2nccs2)cc1 [succinylsulfathiazole]
96.1

Consider the compound CCNC(=O)CCC/C=C\C[C@@H]1[C@@H](/C=C/[C@@H](O)CCc2ccccc2)[C@H](O)C[C@@H]1O [bimatoprost] . State its measured cell viability.
101

For the compound CCOC(=O)[C@@](C)(N)Cc1ccc(O)c(O)c1 [methyldopate] , give its reported cell viability.
101

Give the reported value of cell viability for this record: CC(C)(C)[C@H]1CC[C@H](CC2=C(O)C(=O)c3ccccc3C2=O)CC1 [buparvaquone]
95

Tell us which cell viability value is on record for COc1ccccc1Oc1c(NS(=O)(=O)c2ccc(C)cn2)nc(-c2ccncc2)nc1OC [SPP301]
93.4

State its cell viability: CCC(=O)OCN1C(=O)C=CC1=O [MIRA-1]
104

Could you please provide reported cell viability for COCCN1CCN(Cc2ccc(-c3n[nH]c4c3C(=O)c3c(NC(=O)NN5CCOCC5)cccc3-4)cc2)CC1 ? Thanks!
86.5

Recall and state the measured cell viability for COC[C@H](C)Oc1cc(O[C@@H](C)Cc2ccccc2)cc(C(=O)Nc2ccc(C(=O)O)cn2)c1 [GKA-50] .
97.8

State its cell viability: O[C@H]1CC[C@H](Nc2ncc3nc(Nc4c(F)cc(F)cc4F)n([C@H]4CCOC4)c3n2)CC1 [CC-930]
104
